Parameter: NF-kB SEAP reporter activity. Scope: all listed entries.
tested on: RAW-Dual; test: NF-kB SEAP reporter activity, fold change vs agonist alone; higher = enhanced NF-kB activity; settings: library stock concentration (final ~1000-fold dilution): 10 mM; cytotoxicity flag (confluency mask): not cytotoxic; agonist: MPLA (TLR4) […]
In all, about 2,900 compounds were measured (“NF-kB SEAP reporter activity, fold change vs agonist alone”: median about 0.99, highest 2% from about 2.6 on). The list comes from a sample in which the highest values are over-represented; it also holds close analogues and randomly drawn compounds.
Enter a number only.

(Q) Form field - read-out: NF-kB SEAP reporter activity; system: RAW-Dual; submitted item: "Cc1c[nH]c(-c2cnc(NCCNc3ccc(C#N)cn3)nc2-c2ccc(Cl)cc2Cl)n1.Cl"
(A) 2.2

(Q) Form field - read-out: NF-kB SEAP reporter activity; system: RAW-Dual; submitted item: "CN(C)C(=O)Nc1cccc(-c2ccc(N(C)C)cc2)c1"
(A) 0.985

(Q) Form field - read-out: NF-kB SEAP reporter activity; system: RAW-Dual; submitted item: "CCn1c2ccccc2c2cc(-n3nncc3-c3ccccc3)ccc21"
(A) 2.14

(Q) Form field - read-out: NF-kB SEAP reporter activity; system: RAW-Dual; submitted item: CC1(C)CCC2(C(=O)O)CCC3(C)C(=CCC4C5(C)CCC(=O)C(C)(C)C5CCC43C)C2C1 (stereo not given)
(A) 1.27

(Q) Form field - read-out: NF-kB SEAP reporter activity; system: RAW-Dual; submitted item: "CCn1cc(-c2ccnc3[nH]c(-c4cccc(CN(C)C)c4)cc23)c(-c2ccc(NC(=O)N(C)C)cc2)n1"
(A) 2.67

(Q) Form field - read-out: NF-kB SEAP reporter activity; system: RAW-Dual; submitted item: "CCc1nn(CCCN2CCN(c3cccc(Cl)c3)CC2)c(=O)n1CCOc1ccccc1.Cl"
(A) 0.878

(Q) Form field - read-out: NF-kB SEAP reporter activity; system: RAW-Dual; submitted item: "O=c1nc(N2CCOCC2)oc2c(-c3cccc4c3sc3ccccc34)cccc12"
(A) 1.85

---

system: RAW-Dual; assay: NF-kB SEAP reporter activity, fold change vs agonist alone; cytotoxicity flag (confluency mask): not cytotoxic; higher = enhanced NF-kB activity; conditions: agonist: LPS (TLR4) 0.1 ug/mL
In all, about 2,900 compounds were measured (“NF-kB SEAP reporter activity, fold change vs agonist alone”: median about 0.99, highest 2% from about 2.6 on). Many of the other results were omitted from the sample, so the highest values are more common in it than they were.
measurement-type: NF-kB SEAP reporter activity
Enter a number only.

# compound, measurement-type, recorded-result
records = [
    ("CCCC(=O)OCOC(=O)C1=C(C)NC(C)=C(C(=O)OC)C1c1cccc(Cl)c1Cl (stereo unspecified) (library stock concentration (final ~1000-fold dilution): 10 mM)", "NF-kB SEAP reporter activity", 0.954),
]

(Q) Returns the measured NF-kB SEAP reporter activity for the input compound. Input: CCCCCCCCCCCC(CC1OC(=O)C1CCCCCC)OC(=O)C(CC(C)C)NC=O (stereo unspecified) (library stock concentration (final ~1000-fold dilution): 10 mM)
(A) 1.07

(Q) Returns the measured NF-kB SEAP reporter activity for the input compound. Input: COC(=O)C1=C(C)NC(C)=C(C(=O)OC)C1c1ccccc1[N+](=O)[O-] (library stock concentration (final ~1000-fold dilution): 10 mM)
(A) 2.15

(Q) Returns the measured NF-kB SEAP reporter activity for the input compound. Input: O=c1cc(-c2ccc(O)cc2)oc2c(C3OCC(O)C(O)C3O)c(O)c(C3OC(CO)C(O)C(O)C3O)c(O)c12 (stereo unspecified) (library stock concentration (final ~1000-fold dilution): 10 mM)
(A) 1.45

(Q) Returns the measured NF-kB SEAP reporter activity for the input compound. Input: CC1(C)CCC2(C(=O)O)CCC3(C)C(=CCC4C5(C)CCC(=O)C(C)(C)C5CCC43C)C2C1 (stereo unspecified) (library stock concentration (final ~1000-fold dilution): 10 mM)
(A) 0.91

(Q) Returns the measured NF-kB SEAP reporter activity for the input compound. Input: CC12CCC(=O)C=C1C=CC1C2CCC2(C)C1CCC21CCC(=O)O1 (stereo unspecified) (library stock concentration (final ~1000-fold dilution): 10 mM)
(A) 0.949

(Q) Returns the measured NF-kB SEAP reporter activity for the input compound. Input: COc1ccc(Cn2c3ncnc4c(ncn4Cc4ccc(OC)cc4)c-3nc2=O)cc1 (library stock concentration (final ~1000-fold dilution): 10 mM)
(A) 1.73

(Q) Returns the measured NF-kB SEAP reporter activity for the input compound. Input: COc1ccccc1C(=O)Nc1cc2c(cc1N1CCNCC1C)n(C)c(=O)n2C (stereo unspecified) (library stock concentration (final ~1000-fold dilution): 10 mM)
(A) 1.48

(Q) Returns the measured NF-kB SEAP reporter activity for the input compound. Input: COc1ccc(C(NC(=O)c2cnc(-c3cccnn3)nc2O)c2ccc(OC)cc2)cc1 (library stock concentration (final ~1000-fold dilution): 10 mM)
(A) 2.9

(Q) Returns the measured NF-kB SEAP reporter activity for the input compound. Input: NC(=O)C(=Cn1cnc(-c2cc(C(F)(F)F)cc(C(F)(F)F)c2)n1)c1cncnc1 (library stock concentration (final ~1000-fold dilution): 10 mM)
(A) 0.331

(Q) Returns the measured NF-kB SEAP reporter activity for the input compound. Input: COC(=O)C1=C(C)NC(C)=C(C(=O)OCC(C)C)C1c1ccccc1[N+](=O)[O-] (stereo unspecified) (library stock concentration (final ~1000-fold dilution): 10 mM)
(A) 0.885

(Q) Returns the measured NF-kB SEAP reporter activity for the input compound. Input: CC(Oc1cc(-n2cnc3ccc(CN4CCN(C)CC4)cc32)sc1C(N)=O)c1ccccc1C(F)(F)F (stereo unspecified) (library stock concentration (final ~1000-fold dilution): 10 mM)
(A) 1.15

(Q) Returns the measured NF-kB SEAP reporter activity for the input compound. Input: CS(=O)(=O)c1ccc(-c2cnc(N)c(C(=O)Nc3ccccc3)n2)cc1 (library stock concentration (final ~1000-fold dilution): 10 mM)
(A) 4.61

(Q) Returns the measured NF-kB SEAP reporter activity for the input compound. Input: CCOC(=O)C1=C(C)NC(C)=C(C(=O)OC)C1c1cccc(Cl)c1Cl (stereo unspecified) (library stock concentration (final ~1000-fold dilution): 10 mM)
(A) 0.607

(Q) Returns the measured NF-kB SEAP reporter activity for the input compound. Input: CC(C)(C)c1ccc(S(=O)(=O)NCc2ccc(C(=O)Nc3cccnc3)cc2)cc1 (library stock concentration (final ~1000-fold dilution): 10 mM)
(A) 0.67

---

system: RAW-Dual; assay: NF-kB SEAP reporter activity, fold change vs agonist alone; cytotoxicity flag (confluency mask): not cytotoxic; higher = enhanced NF-kB activity; conditions: agonist: Pam3CSK4 (TLR2/1) 0.1 ug/mL
In all, about 2,900 compounds were measured (“NF-kB SEAP reporter activity, fold change vs agonist alone”: median about 0.99, highest 2% from about 2.6 on). The full list was thinned out, with the highest values kept by preference.
The threshold is inclusive: NF-kB SEAP reporter activity of exactly 1 counts as condition met; values below receive condition not met.

Answered cases to consult:
# molecule, group-label
measured = [
    ("O=C(NCc1cccc(O)c1)Nc1nc(-c2ccncc2)cs1 (library stock concentration (final ~1000-fold dilution): 10 mM)", "condition met"),
    ("Oc1ccc(Nc2nc(-c3ccc(Cl)cc3)cs2)cc1 (library stock concentration (final ~1000-fold dilution): 10 mM)", "condition not met"),
]

(Q) Form field: NF-kB SEAP reporter activity at least 1? Entry: CCOC(=O)C(CCc1ccccc1)NC1CSC(c2cccs2)CN(CC(=O)O)C1=O.Cl (stereo unspecified) (library stock concentration (final ~1000-fold dilution): 10 mM)
(A) condition met

---

test system: RAW-Dual; experiment: NF-kB SEAP reporter activity, fold change vs agonist alone; cytotoxicity flag (confluency mask): not cytotoxic; higher = enhanced NF-kB activity; conditions: agonist: LPS (TLR4) 0.1 ug/mL
Whole data set: some 2,900 compounds, median “NF-kB SEAP reporter activity, fold change vs agonist alone” near 0.99, cut for the highest 2% near 2.6. The entries come from a sample that favours the highest values as a whole.
Parameter: NF-kB SEAP reporter activity. Scope: all listed entries.
Enter a number only.

# compound, tgt, recorded-result
records = [
    ("CCOCc1nc2c(N)nc3ccccc3c2n1CC(C)(C)O (library stock concentration (final ~1000-fold dilution): 3.2 mM)", "RAW-Dual", 3.55),
    ("COc1cc(C(=O)O)ccc1NC(=O)C1NC(CC(C)(C)C)C(C#N)(c2ccc(Cl)cc2F)C1c1cccc(Cl)c1F (configuration not stated) (library stock concentration (final ~1000-fold dilution): 10 mM)", "RAW-Dual", 0.272),
    ("COc1cc2c(cc1OC)CN(C(=O)/C=C/c1c(-c3ccccc3)n(C)c3ncccc13)CC2.Cl (library stock concentration (final ~1000-fold dilution): 10 mM)", "RAW-Dual", 1.15),
    ("CCC(=O)OC1CC(=O)OC(C)C/C=C/C=C/C(O)C(C)CC(CC=O)C(OC2OC(C)C(OC3CC(C)(O)C(OC(=O)CC)C(C)O3)C(N(C)C)C2O)C1OC (configuration not stated) (library stock concentration (final ~1000-fold dilution): 10 mM)", "RAW-Dual", 0.93),
    ("O=c1ccoc2cc(O)ccc12 (library stock concentration (final ~1000-fold dilution): 10 mM)", "RAW-Dual", 1.85),
]

(Q) Form field - read-out: NF-kB SEAP reporter activity; system: RAW-Dual; submitted item: COc1ccc(Cn2ccc3ccc(C(=O)NO)cc32)cc1 (library stock concentration (final ~1000-fold dilution): 10 mM)
(A) 0.996

(Q) Form field - read-out: NF-kB SEAP reporter activity; system: RAW-Dual; submitted item: CN(C)C(=O)CCSC(SCCC(=O)O)c1cccc(C=Cc2ccc3ccc(Cl)cc3n2)c1 (configuration not stated) (library stock concentration (final ~1000-fold dilution): 10 mM)
(A) 1.5

(Q) Form field - read-out: NF-kB SEAP reporter activity; system: RAW-Dual; submitted item: Cc1cc(C)c2c(c1)C(N(Cc1cc(C(F)(F)F)cc(C(F)(F)F)c1)c1nnn(C)n1)CCCN2CC1CCC(C(=O)O)CC1 (configuration not stated) (library stock concentration (final ~1000-fold dilution): 10 mM)
(A) 0.632

(Q) Form field - read-out: NF-kB SEAP reporter activity; system: RAW-Dual; submitted item: CCCOc1ccc(S(=O)(=O)NCCC2CCCN2C)cc1-c1nc(=O)c2c([nH]1)c(CCC)nn2C (configuration not stated) (library stock concentration (final ~1000-fold dilution): 10 mM)
(A) 1.02

(Q) Form field - read-out: NF-kB SEAP reporter activity; system: RAW-Dual; submitted item: CCCCCCCCCCCCCCCC(=O)OCC(O)C1OC(O)=C(O)C1=O (configuration not stated) (library stock concentration (final ~1000-fold dilution): 10 mM)
(A) 1.15

(Q) Form field - read-out: NF-kB SEAP reporter activity; system: RAW-Dual; submitted item: Nc1nc(-c2ccco2)c2cnn(Cc3ccccc3F)c2n1 (library stock concentration (final ~1000-fold dilution): 10 mM)
(A) 1.11

(Q) Form field - read-out: NF-kB SEAP reporter activity; system: RAW-Dual; submitted item: Nc1ncn(C2CC(O)C(CO)O2)c(=O)n1 (configuration not stated) (library stock concentration (final ~1000-fold dilution): 10 mM)
(A) 1.55

Every entry's value here was drawn from the supplement of paper PMC10037445.
